test system: rodent lifetime carcinogenesis bioassay, tumor incidence TD50; assay: carcinogenic potency in animals, long-term in vivo studies, CPDB compilation (AID 1745844); conditions: rat; strain ACI; males; in feed; site: large intestine; lesion: several types; types named in the paper; dosed 69 weeks; study length 69 weeks
measured property: TD50

Can you look up TD50 on rodent lifetime carcinogenesis bioassay, tumor incidence TD50 for O=C1c2cccc(O)c2C(=O)c2c(O)cccc21 ?
245 mg/kg/day

----------
test system: rodent lifetime carcinogenesis bioassay, tumor incidence TD50; assay: carcinogenic potency in animals, long-term in vivo studies, CPDB compilation (AID 1745844); details: mouse; strain B6C3F1; females; in drinking water; site: thyroid gland; lesion: follicular-cell adenoma; dosed 103 weeks; study length 104 weeks
measured property: TD50

# TD50 lookup, item Nc1ccc(Cc2ccc(N)cc2)cc1
150 mg/kg/day

----------
system: rodent lifetime carcinogenesis bioassay, tumor incidence TD50; assay: carcinogenic potency in animals, long-term in vivo studies, CPDB compilation (AID 1745844); conditions: mouse; strain (C3H x RIII)F1 (MTV+); males; in feed; site: mammary tissue, wider than the gland; lesion: one or several types; types not named; dosed 104 weeks; study length 104 weeks
Reported TD50 by item:

molecule | TD50
CC(=O)O[C@]1(C(C)=O)CC[C@H]2[C@@H]3C=C(Cl)C4=CC(=O)CC[C@]4(C)[C@H]3CC[C@@]21C (tested in a mixture with another compound) | 1.76 mg/kg/day

Now for another entry.
# TD50 lookup, item C#C[C@]1(C(C)=O)CC[C@H]2[C@@H]3CCC4=C[C@@H](C(C)=O)CC[C@@H]4[C@H]3CC[C@@]21C (tested in a mixture with another compound)
0.3 mg/kg/day

----------
test system: rodent lifetime carcinogenesis bioassay, tumor incidence TD50; experiment: carcinogenic potency in animals, long-term in vivo studies, CPDB compilation (AID 1745844); conditions: rat; strain Charles River CD (Sprague-Dawley); females; i.p.; site: kidney; lesion: several types; types named in the paper; dosed 26 weeks; study length 78 weeks
measured property: TD50

# TD50 lookup, item CN(N=O)C(=O)N[C@@H](C=O)[C@@H](O)[C@H](O)[C@H](O)CO
1.27 mg/kg/day

----------
system: rodent lifetime carcinogenesis bioassay, tumor incidence TD50; test: carcinogenic potency in animals, long-term in vivo studies, CPDB compilation (AID 1745844); settings: rat; strain Fischer 344; females; inhaled; site: kidney; lesion: tubule adenoma + tubule carcinoma; dosed 104 weeks; study length 104 weeks
measured property: TD50

# TD50 lookup, item C=CC(=C)Cl
183 mg/kg/day

----------
tested on: rodent lifetime carcinogenesis bioassay, tumor incidence TD50; assay: carcinogenic potency in animals, long-term in vivo studies, CPDB compilation (AID 1745844); details: mouse; strain B6C3F1; males; by gavage; site: liver; lesion: hepatocellular carcinoma; dosed 104 weeks; study length 105 weeks
measured property: TD50 (mg/kg/day)
Write the answer as a number in mg/kg/day, unit excluded.

# TD50 lookup, item c1ccoc1
5.13

----------
tested on: rodent lifetime carcinogenesis bioassay, tumor incidence TD50; assay: carcinogenic potency in animals, long-term in vivo studies, CPDB compilation (AID 1745844); settings: mouse; strain B6C3F1; females; inhaled; site: all sites; lesion: hemangioma + hemangiosarcoma; dosed 83 weeks; study length 104 weeks
measured property: TD50 (mg/kg/day)
Write the answer as a number in mg/kg/day, unit excluded.

# TD50 lookup, item C=CC=C
35

Origin of values: PubChem BioAssay AID1745844
